Target: T1, human GPC3 on CHO-K1-human GPC3 cells (clone CHOK1-hGPC3.2B5) (human, UniProt P51654 25-554)
T1 construct: whole, on cells; Stably transfected CHO-K1 clone 2B5
Assay: FACS on CHOK1-hGPC3.2B5 cells;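 note: flow cytometry binding of chimeric antibodies to the cells, read out as mean fluorescence intensity, with the half-maximal concentration derived by curve fitting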
readoutName: EC50 (pM)
// note: answer is a bare numeric in pM

{"binder": "F2.39.2 human-murine chimeric antibody (antibody, human IgG1, kappa, V domains shown) VH: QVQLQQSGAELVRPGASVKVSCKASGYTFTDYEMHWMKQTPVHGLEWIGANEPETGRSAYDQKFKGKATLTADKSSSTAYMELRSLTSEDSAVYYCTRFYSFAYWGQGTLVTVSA VL: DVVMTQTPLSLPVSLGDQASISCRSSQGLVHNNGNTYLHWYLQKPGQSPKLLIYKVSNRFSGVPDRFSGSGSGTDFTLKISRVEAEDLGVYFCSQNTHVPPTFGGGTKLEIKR", "EC50 / pM": 1000}

In the following, a different binder is considered.
INPUT: Name the reported EC50 value associated with the binder F1.120.16 human-murine chimeric antibody (antibody, human IgG1, kappa, V domains shown) VH: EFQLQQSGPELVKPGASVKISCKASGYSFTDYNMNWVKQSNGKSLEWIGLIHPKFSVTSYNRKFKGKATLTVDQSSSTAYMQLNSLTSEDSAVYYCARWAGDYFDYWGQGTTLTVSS VL: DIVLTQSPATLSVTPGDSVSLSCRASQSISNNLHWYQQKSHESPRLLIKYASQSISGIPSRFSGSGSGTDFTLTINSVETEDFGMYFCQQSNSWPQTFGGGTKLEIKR
OUTPUT: 520
